The measured values listed here are drawn from patent US20250084056A1.

- experimental-system: Cyclin E1 (Homo sapiens, UniProt P24864+Q96SW2)
- Sequence (P24864 whole entry): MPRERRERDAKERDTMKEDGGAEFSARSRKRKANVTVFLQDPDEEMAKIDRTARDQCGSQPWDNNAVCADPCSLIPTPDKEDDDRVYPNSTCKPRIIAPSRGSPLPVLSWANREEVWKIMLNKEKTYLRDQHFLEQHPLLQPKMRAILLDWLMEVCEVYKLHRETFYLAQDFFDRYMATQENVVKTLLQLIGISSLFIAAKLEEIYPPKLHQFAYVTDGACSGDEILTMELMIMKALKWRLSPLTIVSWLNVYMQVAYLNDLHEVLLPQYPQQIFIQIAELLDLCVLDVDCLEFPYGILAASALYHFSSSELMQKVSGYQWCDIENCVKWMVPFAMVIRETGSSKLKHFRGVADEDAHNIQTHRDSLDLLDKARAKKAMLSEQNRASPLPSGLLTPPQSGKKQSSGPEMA
- Sequence (Q96SW2 whole entry): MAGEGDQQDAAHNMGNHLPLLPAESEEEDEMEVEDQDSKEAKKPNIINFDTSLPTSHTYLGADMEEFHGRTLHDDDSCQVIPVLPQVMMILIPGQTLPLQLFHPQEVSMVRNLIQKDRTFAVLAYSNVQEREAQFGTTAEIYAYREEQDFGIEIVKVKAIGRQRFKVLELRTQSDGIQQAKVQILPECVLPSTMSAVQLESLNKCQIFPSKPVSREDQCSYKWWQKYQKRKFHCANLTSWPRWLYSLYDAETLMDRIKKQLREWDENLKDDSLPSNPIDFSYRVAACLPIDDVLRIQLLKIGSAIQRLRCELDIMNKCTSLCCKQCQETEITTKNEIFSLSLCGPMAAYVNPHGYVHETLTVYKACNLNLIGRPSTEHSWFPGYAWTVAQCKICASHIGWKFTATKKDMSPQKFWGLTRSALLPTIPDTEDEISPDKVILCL
- Sequence (Q16531 whole entry partner): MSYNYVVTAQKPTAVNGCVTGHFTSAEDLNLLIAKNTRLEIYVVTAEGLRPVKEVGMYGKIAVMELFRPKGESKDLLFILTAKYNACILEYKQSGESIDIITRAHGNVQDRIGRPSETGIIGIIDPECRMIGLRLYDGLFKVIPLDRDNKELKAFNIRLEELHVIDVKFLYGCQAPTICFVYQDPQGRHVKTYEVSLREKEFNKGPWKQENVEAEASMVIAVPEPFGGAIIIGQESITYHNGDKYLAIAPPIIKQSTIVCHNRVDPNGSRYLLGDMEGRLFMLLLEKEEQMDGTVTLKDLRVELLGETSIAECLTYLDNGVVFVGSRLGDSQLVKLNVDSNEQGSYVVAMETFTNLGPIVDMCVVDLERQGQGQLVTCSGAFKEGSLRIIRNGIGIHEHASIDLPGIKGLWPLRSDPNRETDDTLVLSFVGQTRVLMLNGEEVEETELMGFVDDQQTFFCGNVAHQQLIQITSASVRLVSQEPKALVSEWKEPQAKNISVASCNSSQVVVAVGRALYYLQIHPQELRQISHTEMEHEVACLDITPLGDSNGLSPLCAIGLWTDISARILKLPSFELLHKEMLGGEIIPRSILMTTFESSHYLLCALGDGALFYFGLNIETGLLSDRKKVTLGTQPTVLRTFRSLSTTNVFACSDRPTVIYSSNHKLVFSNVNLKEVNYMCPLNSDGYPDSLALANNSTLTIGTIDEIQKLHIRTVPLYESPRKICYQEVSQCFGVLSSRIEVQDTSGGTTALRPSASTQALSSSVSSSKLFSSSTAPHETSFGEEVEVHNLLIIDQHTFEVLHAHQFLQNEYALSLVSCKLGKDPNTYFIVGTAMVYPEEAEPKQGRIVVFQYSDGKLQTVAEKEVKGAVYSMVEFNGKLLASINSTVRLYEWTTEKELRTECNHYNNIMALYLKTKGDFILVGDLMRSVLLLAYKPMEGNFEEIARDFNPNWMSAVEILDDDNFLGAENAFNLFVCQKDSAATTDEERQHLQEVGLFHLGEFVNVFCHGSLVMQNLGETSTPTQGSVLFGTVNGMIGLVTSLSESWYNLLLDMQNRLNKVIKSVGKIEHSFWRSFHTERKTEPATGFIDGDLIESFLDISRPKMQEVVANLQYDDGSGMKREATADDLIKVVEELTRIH
- test-method-notes: Cyclin E1 Cellular Degradation Assay (MSD)
- Assay type: cell-based
- Set-up: endogenous in cells; host or cells: OVCAR3
- condition-details: Cyclin E1 cellular degradation, maximum degradation
reported-property: Dmax (%)
Could you give me the number in %? Just the number is fine.

Given the entry CCOc1c(COC(=O)Nc2ccc(Oc3ccccc3)cc2)ccc2c1C(=O)N(C1CCC(=O)NC1=O)C2 (stereo not drawn) [Example 52] , report its measured Dmax.
107

Given the entry CC(C)(O)COc1c(COC(=O)Nc2ccc(Oc3ccc(F)c(F)c3)cc2F)ccc2c1C(=O)N(C1CCC(=O)NC1=O)C2 (stereo not drawn) [Example 161] , report its measured Dmax.
102

Given the entry COc1c(COC(=O)Nc2ccc(C(C)(C)c3ccccc3)cc2)ccc2c1C(=O)N(C1CCC(=O)NC1=O)C2 (stereo not drawn) [Example 41] , report its measured Dmax.
92

Given the entry CCN(C)C(=O)COc1c(COC(=O)Nc2ccc(Oc3ccc(F)c(F)c3)cc2)ccc2c1C(=O)N(C1CCC(=O)NC1=O)C2 (stereo not drawn) [Example 177] , report its measured Dmax.
108

Given the entry COc1cccc(Oc2ccc(NC(=O)OCc3ccc4c(c3OC)C(=O)N(C3CCC(=O)NC3=O)C4)cc2)c1 (stereo not drawn) [Example 32] , report its measured Dmax.
96

Given the entry COc1c(COC(=O)Nc2ccc(Oc3ccc(F)cc3C)cc2)ccc2c1C(=O)N(C1CCC(=O)NC1=O)C2 (stereo not drawn) [Example 81] , report its measured Dmax.
110

Given the entry O=C1CCC(N2Cc3ccc(COC(=O)Nc4ccc(Oc5ccc(F)cc5)cc4)c(O[C@@H]4CCCOC4)c3C2=O)C(=O)N1 (stereo partly drawn) [Example 144] , report its measured Dmax.
103

Given the entry COc1c(COC(=O)Nc2ccc(Oc3cc(F)cc(F)c3)cc2F)ccc2c1C(=O)N(C1CCC(=O)NC1=O)C2 (stereo not drawn) [Example 24] , report its measured Dmax.
107

Given the entry COc1c(COC(=O)Nc2ccc(Oc3cccc(F)c3F)cc2)ccc2c1C(=O)N(C1CCC(=O)NC1=O)C2 (stereo not drawn) [Example 110] , report its measured Dmax.
106

Given the entry COc1c(COC(=O)Nc2ccc(C(F)(F)c3ccccc3)cc2)ccc2c1C(=O)N(C1CCC(=O)NC1=O)C2 (stereo not drawn) [Example 29] , report its measured Dmax.
92

Given the entry CCOc1c(COC(=O)Nc2ccc(Oc3cccc(F)c3)cc2)ccc2c1C(=O)N(C1CCC(=O)NC1=O)C2 (stereo not drawn) [Example 55] , report its measured Dmax.
108

Given the entry COc1c(COC(=O)Nc2ccc(Oc3cc(F)c(F)c(F)c3)cc2C)ccc2c1C(=O)N(C1CCC(=O)NC1=O)C2 (stereo not drawn) [Example 40] , report its measured Dmax.
108

---

- Tested on: Phospho-Rb (Ser807/811)
- test-method-notes: Phospho-Retinoblastoma (pRB) Cellular Assay
- Format: cell-based
- condition-details: Homo sapiens, OVCAR-3; NIH OVCAR3 cells, 24 hours; concentration giving 50% response
pIC50: −log10 of the molar value.
Would you please tag the item Fulfilled when its pIC50 is 7 or above, and Not fulfilled when it is below?

Hello, I need to know if COc1c(COC(=O)Nc2ccc(Oc3cc(F)cc(F)c3)cc2)ccc2c1C(=O)N(C1CCC(=O)NC1=O)C2 (centres unmarked) has measured pIC50 not below 7. Thanks!
Not fulfilled

Hello, I need to know if O=C1CCC(N2Cc3ccc(COC(=O)Nc4ccc(Oc5ccc(F)c(F)c5)cc4)c(OC4CCCOCC4)c3C2=O)C(=O)N1 (centres unmarked) has measured pIC50 not below 7. Thanks!
Fulfilled

Hello, I need to know if COCCOc1c(COC(=O)Nc2ccc(Oc3ccc(F)c(F)c3)cc2)ccc2c1C(=O)N(C1CCC(=O)NC1=O)C2 (centres unmarked) has measured pIC50 not below 7. Thanks!
Fulfilled

Hello, I need to know if COc1c(COC(=O)Nc2ccc(Cc3cc(F)c(F)c(F)c3)cc2)ccc2c1C(=O)N(C1CCC(=O)NC1=O)C2 (centres unmarked) has measured pIC50 not below 7. Thanks!
Not fulfilled

Hello, I need to know if O=C1CCC(N2Cc3ccc(COC(=O)Nc4ccc(Oc5ccc(F)c(F)c5)cc4)c(OC(F)F)c3C2=O)C(=O)N1 (centres unmarked) has measured pIC50 not below 7. Thanks!
Not fulfilled

Hello, I need to know if COc1c(COC(=O)Nc2ccc(Oc3ccc(F)c(F)c3)cc2Cl)ccc2c1C(=O)N(C1CCC(=O)NC1=O)C2 (centres unmarked) has measured pIC50 not below 7. Thanks!
Not fulfilled

Hello, I need to know if COc1c(COC(=O)Nc2ccc(N(C)c3cccc(F)c3)cc2)ccc2c1C(=O)N(C1CCC(=O)NC1=O)C2 (centres unmarked) has measured pIC50 not below 7. Thanks!
Not fulfilled

Hello, I need to know if [2H]C1([2H])C(=O)NC(=O)[C@@]([2H])(N2Cc3ccc(COC(=O)Nc4ccc(Oc5ccc(F)c(F)c5)cc4)c(OC)c3C2=O)C1([2H])[2H] has measured pIC50 not below 7. Thanks!
Fulfilled

Hello, I need to know if COc1c(COC(=O)Nc2ccc(Nc3cccc(F)c3)cc2)ccc2c1C(=O)N(C1CCC(=O)NC1=O)C2 (centres unmarked) has measured pIC50 not below 7. Thanks!
Not fulfilled
